assay: Acute toxicity (i.v.); parameters: species or system mice; settings: mouse, in vivo, iv
endpoint-label: LD50 at 24 h

Please look up its LD50 at 24 h: `CC1(C)C(=O)N[C@@H]1C(=O)N[C@@H](Cc1c[nH]cn1)C(=O)N1CCC[C@H]1C(N)=O`
> 800 mg/kg

====

assay: Acute toxicity (i.v.); parameters: species or system mice; settings: mouse, in vivo, iv, male mice, observed for 24 hours; read-out: LD50 (i.v.)
endpoint-label: LD50 at 24 h (mg/kg)
One number for each entry, in mg/kg.

Please look up its LD50 at 24 h: NC(=O)[C@@H]1CCCN1C(=O)[C@H](Cc1c[nH]cn1)NC(=O)[C@@H]1CCC(=O)N1 [TRH, L-pyroglutamyl-L-histidyl-L-prolinamide, reference compound]
751
